Just for reference, ChEMBL document CHEMBL5385971 is where these values come from.

Consider the following molecules; for each one, report its inhibition.
- System: Chromobacterium violaceum
- Test method notes: Inhibition of Chromobacterium violaceum ATCC 31532 quorum sensing receptor CviR at 30 uM incubated for 24 hrs by absorbance based microplate reader analysis relative to control

// recorded inhibition for `O=C(N[C@@H](Cc1ccccc1)C(=O)NO)c1ccc(C2CCCCC2)cc1` : 65%

// recorded inhibition for `O=C(Nc1ccc(Cl)cc1)c1ccc(C(=O)N[C@@H](Cc2ccccc2)C(=O)NO)cc1` : < 1%

// recorded inhibition for `O=C(Nc1ccccc1)Nc1ccc(C(=O)N[C@@H](Cc2ccccc2)C(=O)NO)cc1` : < 1%

// recorded inhibition for `O=C(N[C@@H](Cc1ccccc1)C(=O)NO)c1ccc2ccccc2n1` : < 1%

---

Consider the following compounds; for each one, report its inhibition.
- Tested on: Chromobacterium violaceum
- Test method notes: Inhibition of Chromobacterium violaceum ATCC 31532 quorum sensing receptor CviR at 30 uM incubated for 24 hrs by absorbance based microplate reader analysis relative to control
Express it in %; write the number only.

// recorded inhibition for `O=C(N[C@@H](Cc1ccccc1)C(=O)NO)c1ccc(COc2ccccc2)cc1` : 11

// recorded inhibition for `O=C(N[C@@H](Cc1ccccc1)C(=O)NO)c1cc(Cl)ccc1F` : 58

// recorded inhibition for `Cc1ccc(S(=O)(=O)Nc2ccc(C(=O)N[C@@H](Cc3ccccc3)C(=O)NO)cc2)cc1` : 79

// recorded inhibition for `O=C(N[C@@H](Cc1ccccc1)C(=O)NO)c1ccc(Cl)c(Cl)c1` : 35
